# System: Staphylococcus aureus
# TEST DETAILS: Antibacterial activity against methicillin-resistant Staphylococcus aureus ATCC 43300 measured after 12 to 14 hrs
# Assay type: functional
The reader will find reported MIC values listed item by item below.
Reply with just the number (in µM).

OCc1cc2c3ccccc3n(Cc3ccc(Cl)cc3)c2c(-c2c[nH]c3ccccc23)n1 ... 50

Per the record, O=C(O)c1cn(C2CC2)c2cc(N3CCNCC3)c(F)cc2c1=O has MIC of 12.5

----------
# Test system: Staphylococcus aureus
# TEST DETAILS: Antibacterial activity against methicillin-resistant Staphylococcus aureus ATCC 43300 measured after 12 to 14 hrs
# Assay type: functional
TEST READOUT: MIC

Solved cases (8 shown):
OCc1cc2c3ccccc3n(Cc3ccccc3Cl)c2c(-c2c[nH]c3ccccc23)n1 ... > 100 µM
COC(=O)c1cc2c3ccccc3n(Cc3ccccc3C)c2c(-c2cn(C(C)=O)c3ccccc23)n1 ... > 100 µM
OCc1cc2c3ccccc3n(Cc3ccccc3C(F)(F)F)c2c(-c2c[nH]c3ccccc23)n1 ... 100 µM
COC(=O)c1cc2c3ccccc3n(Cc3ccc(Br)cc3)c2c(-c2cn(C(C)=O)c3ccccc23)n1 ... > 100 µM
OCc1cc2c3ccccc3n(Cc3ccccc3F)c2c(-c2c[nH]c3ccccc23)n1 ... > 100 µM
Cc1ccc(Cn2c3ccccc3c3cc(CO)nc(-c4c[nH]c5ccccc45)c32)cc1 ... 25 µM
COC(=O)c1cc2c3ccccc3n(Cc3ccccc3)c2c(-c2cn(C(C)=O)c3ccccc23)n1 ... > 100 µM
COC(=O)c1cc2c3ccccc3n(Cc3cccc(Br)c3)c2c(-c2cn(C(C)=O)c3ccccc23)n1 ... > 100 µM

Please turn your attention to the following entry.
Staphylococcus aureus data for COC(=O)c1cc2c3ccccc3n(Cc3ccc(C)cc3)c2c(-c2cn(C(C)=O)c3ccccc23)n1 ; its MIC: > 100 µM
